Target: UniProtKB O00519
Sequence (O00519 1-579): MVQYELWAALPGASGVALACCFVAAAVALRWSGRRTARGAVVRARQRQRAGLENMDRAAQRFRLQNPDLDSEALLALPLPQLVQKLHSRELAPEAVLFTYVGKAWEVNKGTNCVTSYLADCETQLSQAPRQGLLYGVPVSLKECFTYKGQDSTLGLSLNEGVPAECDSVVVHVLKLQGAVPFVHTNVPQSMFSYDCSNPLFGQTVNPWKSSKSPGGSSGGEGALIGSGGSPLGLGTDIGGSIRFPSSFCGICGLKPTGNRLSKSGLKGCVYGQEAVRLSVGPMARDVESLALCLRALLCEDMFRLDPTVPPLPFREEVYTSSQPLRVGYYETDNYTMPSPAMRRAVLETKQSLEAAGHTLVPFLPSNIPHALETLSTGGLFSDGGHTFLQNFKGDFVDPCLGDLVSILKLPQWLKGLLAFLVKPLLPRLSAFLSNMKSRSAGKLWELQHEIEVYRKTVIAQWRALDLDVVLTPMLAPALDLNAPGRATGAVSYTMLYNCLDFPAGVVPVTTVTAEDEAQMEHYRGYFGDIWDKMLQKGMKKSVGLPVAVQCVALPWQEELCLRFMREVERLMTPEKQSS
Assay: In vitro competitive activity-based protein profiling, FAAH, human
Details: read-out: FAAH % inh. 1 μM (human)
quantity.kind: inhibition at 1 µM

[[record]]
compound = "O=C(O)c1ccn(C(=O)N2CCC3(CCCN3Cc3ccc(C(F)(F)F)cc3N3C4CCC3COC4)CC2)n1 [Example 82]"
result = "0 to 25%"

[[record]]
compound = "CN(Cc1ccc(C(F)(F)F)cc1N1C2CCC1COC2)C1(C)CCN(C(=O)n2ccc(C(=O)O)n2)CC1 [Example 207]"
result = "0 to 25%"

[[record]]
compound = "CC(=O)NC1CCN(c2cc(C(F)(F)F)ccc2CN2CCN(C(=O)n3ccc(C(=O)O)n3)CC2)CC1 [Example 119]"
result = "0 to 25%"

[[record]]
compound = "Cc1cn(C(=O)N2CCC3(CC2)CN(Cc2cc(Cl)ccc2C(F)(F)F)C3)nc1C(=O)O [Example 131]"
result = "0 to 25%"

[[record]]
compound = "Cc1cn(C(=O)N2CCN(Cc3cccc(Oc4ccc(Cl)cc4)c3)CC2)nc1C(=O)O [Example 129]"
result = "> 75%"


Which inhibition at 1 µM reading was recorded for the compound O=C(O)c1ccn(C(=O)N2CCN(Cc3ccc(C(F)(F)F)cc3N3CC[C@H](F)C3)CC2)n1 [Example 92] ?
0 to 25%

Which inhibition at 1 µM reading was recorded for the compound O=C(O)c1ccn(C(=O)N2CC3CN(Cc4ccc(N5CCCC5)cc4C(F)(F)F)CC3C2)n1 (stereo not shown) [Example 123] ?
50 to 75%

Which inhibition at 1 µM reading was recorded for the compound O=C(O)c1ccn(C(=O)N2CCC3(CCCN3Cc3ccc(C(F)(F)F)cc3N3CCCC3)CC2)n1 [Example 93] ?
0 to 25%

Which inhibition at 1 µM reading was recorded for the compound O=C(O)c1ccn(C(=O)N2CCN(Cc3ccc(C(F)(F)F)cc3N3CCN4CCC[C@H]4C3)CC2)n1 [Example 49] ?
0 to 25%

Which inhibition at 1 µM reading was recorded for the compound O=C(O)c1ccn(C(=O)N2CCC3(CCCN3Cc3ccc(Cl)cc3N3CCCC3)CC2)n1 [Example 180] ?
0 to 25%

Which inhibition at 1 µM reading was recorded for the compound O=C(O)c1ccn(C(=O)N2C[C@H]3C[C@H](OCc4cccc(Oc5ccc(Cl)cc5)c4)C[C@H]3C2)n1 [Example 158] ?
> 75%

Which inhibition at 1 µM reading was recorded for the compound O=C(O)c1ccn(C(=O)N2CCN(Cc3ccc(C(F)(F)F)c(-c4nccs4)c3)CC2)n1 [Example 8] ?
0 to 25%

Which inhibition at 1 µM reading was recorded for the compound O=C(O)c1ccn(C(=O)N2CCN(Cc3ccc(Cl)cc3N3CCCC3)CC2)n1 [Example 107] ?
0 to 25%
